Reference for the values: patent US20160264650A1

Listed binders paired with reported T½
EXPERIMENTAL_TARGET: T1, Clostridium difficile toxin A, soluble full-length (TechLab) (Clostridium difficile, UniProt P16154 1-2710)
T1 construct: also called tcdA
PROTOCOL_NOTES: SPR Biacore T200, 37C, mAb capture

- BINDER: "H1H3328P (antibody, V domains shown) VH: EVQLVESGGGLVQPGGSLTLSCAASRFTFSNYDMHWVRQATGKGLEWVSAIGTVGDTYYAGSVKGRFTISRDDAKNSLYLQMNSLRAGDTAVYYCARDRGGAGTYSFYYGMDVWGQGTTVTVSS VL: DIQMTQSPSSLSASVGDRVTITCRASQDISNYLAWYQQKPGKVPKLLIYAASTLQSGVPSRFSGSGSGTDFTLTVSSLQPEDVATYYCQKYTSAPFTFGPGTKVDIKR"
  T½: "5.27 h"
- BINDER: "H1H3324P (antibody, V domains shown) VH: EVQLVESGGGLVQPGGSLRLSCAASGFTFSSYDMHWVRQVIGKGLEWVSAIGTVGDTYYAGSVKGRFTISRENAKNSLYLQMNSLRAGDTAVYYCARDRGGANIYSFYYGMDVWGQGTTVTVSS VL: DIQMTQSPSSLSVSVGDRVTITCRASQDISNYLAWYQQKPGKVPKLLIYAASTLQSGVPSRFSGSGSGTDFTLTISSLQPEDVATYFCQKYNSAPFTFGPGTKVDIKR"
  T½: "54.9 h"
- BINDER: "H1H3330P (antibody, V domains shown) VH: QVQLVESGGGVVQPGGSLRLSCAASGFTFSSYAMHWVRQAPGKGLEWVAIIWFDGSNEDYADSVKGRFTISRDNSKNMVYLQINSLRAEDTAVYYCARSANWNYEGGPLFDYWGQGTLVTVSS VL: DIQMTQSPSSLSASVGDRVTITCRASQTISTFLNWYQQKPGKGPELLIYTASSLQSGVPSRFSGSGSGTDFALTISSLQPEDFATYYCQQNYNDPPTFGQGTRLEIKR"
  T½: "1.42 h"
